For each entry below, report its Control value.
biological target: UniProt Q61391; test: Inhibition of Neutral Endopeptidase activity was measured by using the displacement of [3H]HACBOGly from mouse kidney after 4 hr oral administration; set-up: scale not given: the % may be the effect or the level left
The reply should contain only the number, in %.

Give reported Control value for "C[C@H](NC(=O)[C@@H](CSC(=O)C12CC3CC(CC(C3)C1)C2)[C@@H](C)c1ccccc1)C(=O)O"
100

Name the recorded Control of the compound listed here: CC[C@H](NC(=O)C(CSC(=O)c1ccccc1)C(C)c1ccccc1)C(=O)O (some centres undefined)
73

Consider the compound CC(c1ccccc1)C(CSC(=O)c1ccccc1)C(=O)N[C@@H](C)C(=O)O (some centres undefined) and give its recorded Control.
100

Tell me Control reported for CCC[C@H](NC(=O)C(CSC(=O)c1ccccc1)C(C)c1ccccc1)C(=O)O (some centres undefined)
46

====

molecular target: Angiotensin-converting enzyme (Mus musculus); assay: In vivo inhibition of lung ACE was observed at 240 min after oral administration of the compound; type: functional, organism-based; set-up: concentration or dose not given beside the values
Quantity Measured: Control
In your response, put the unit directly after the numeric value.

Annotate the compound CCC[C@H](NC(=O)C(CSC(=O)c1ccccc1)C(C)c1ccccc1)C(=O)O (stereo partly drawn) with its measured Control.
41%

Return Control (reported value) for this compound: CC(c1ccccc1)C(CSC(=O)c1ccccc1)C(=O)N[C@@H](C)C(=O)O (stereo partly drawn)
32%

Identify the reported Control for the following entry. CC(c1ccccc1)C(CSC(=O)C12CC3CC(CC(C3)C1)C2)C(=O)N[C@@H](C)C(=O)OCc1ccccc1 (stereo partly drawn)
16%

====

molecular target: Angiotensin-converting enzyme (Mus musculus); assay: In vivo inhibition of lung ACE was observed at 30 min after oral administration of the compound; type: organism-based; parameters: concentration or dose not given beside the values
Provide the recorded Control for the entries that follow.
Report the figure in % without appending any unit label.

Write down Control measured for item CCC[C@H](NC(=O)C(CSC(=O)c1ccccc1)C(C)c1ccccc1)C(=O)O (some centres not stated)
69

Supply measured Control of "C[C@H](NC(=O)[C@@H](CSC(=O)C12CC3CC(CC(C3)C1)C2)[C@@H](C)c1ccccc1)C(=O)O" in your reply.
72

Output measured Control for this item: CC(c1ccccc1)C(CSC(=O)C12CC3CC(CC(C3)C1)C2)C(=O)N[C@@H](C)C(=O)OCc1ccccc1 (some centres not stated)
41

Give Control for CC(c1ccccc1)C(CSC(=O)c1ccccc1)C(=O)N[C@@H](C)C(=O)O (some centres not stated)
75

For the molecule CC(=O)SCC(C(=O)N[C@@H](C)C(=O)O)C(C)c1ccccc1 (some centres not stated) , give its reported Control.
31

Indicate its recorded Control; the molecule in question is CC(c1ccccc1)C(CSC(=O)C12CC3CC(CC(C3)C1)C2)C(=O)N[C@@H](C)C(=O)O (some centres not stated)
40

Please report Control for the following molecule: CC[C@H](NC(=O)C(CSC(=O)c1ccccc1)C(C)c1ccccc1)C(=O)O (some centres not stated)
73

====

Could you please report measured inhibition for the items listed next?
target: Angiotensin-converting enzyme (Mus musculus) (UniProt P09470); assay: In vivo inhibition of lung Angiotensin Converting Enzyme (ACE) in mouse at a dose of 2.6*10e-5 mol/kg after 60 min oral administration; format: functional, organism-based
Sequence (P09470 whole entry): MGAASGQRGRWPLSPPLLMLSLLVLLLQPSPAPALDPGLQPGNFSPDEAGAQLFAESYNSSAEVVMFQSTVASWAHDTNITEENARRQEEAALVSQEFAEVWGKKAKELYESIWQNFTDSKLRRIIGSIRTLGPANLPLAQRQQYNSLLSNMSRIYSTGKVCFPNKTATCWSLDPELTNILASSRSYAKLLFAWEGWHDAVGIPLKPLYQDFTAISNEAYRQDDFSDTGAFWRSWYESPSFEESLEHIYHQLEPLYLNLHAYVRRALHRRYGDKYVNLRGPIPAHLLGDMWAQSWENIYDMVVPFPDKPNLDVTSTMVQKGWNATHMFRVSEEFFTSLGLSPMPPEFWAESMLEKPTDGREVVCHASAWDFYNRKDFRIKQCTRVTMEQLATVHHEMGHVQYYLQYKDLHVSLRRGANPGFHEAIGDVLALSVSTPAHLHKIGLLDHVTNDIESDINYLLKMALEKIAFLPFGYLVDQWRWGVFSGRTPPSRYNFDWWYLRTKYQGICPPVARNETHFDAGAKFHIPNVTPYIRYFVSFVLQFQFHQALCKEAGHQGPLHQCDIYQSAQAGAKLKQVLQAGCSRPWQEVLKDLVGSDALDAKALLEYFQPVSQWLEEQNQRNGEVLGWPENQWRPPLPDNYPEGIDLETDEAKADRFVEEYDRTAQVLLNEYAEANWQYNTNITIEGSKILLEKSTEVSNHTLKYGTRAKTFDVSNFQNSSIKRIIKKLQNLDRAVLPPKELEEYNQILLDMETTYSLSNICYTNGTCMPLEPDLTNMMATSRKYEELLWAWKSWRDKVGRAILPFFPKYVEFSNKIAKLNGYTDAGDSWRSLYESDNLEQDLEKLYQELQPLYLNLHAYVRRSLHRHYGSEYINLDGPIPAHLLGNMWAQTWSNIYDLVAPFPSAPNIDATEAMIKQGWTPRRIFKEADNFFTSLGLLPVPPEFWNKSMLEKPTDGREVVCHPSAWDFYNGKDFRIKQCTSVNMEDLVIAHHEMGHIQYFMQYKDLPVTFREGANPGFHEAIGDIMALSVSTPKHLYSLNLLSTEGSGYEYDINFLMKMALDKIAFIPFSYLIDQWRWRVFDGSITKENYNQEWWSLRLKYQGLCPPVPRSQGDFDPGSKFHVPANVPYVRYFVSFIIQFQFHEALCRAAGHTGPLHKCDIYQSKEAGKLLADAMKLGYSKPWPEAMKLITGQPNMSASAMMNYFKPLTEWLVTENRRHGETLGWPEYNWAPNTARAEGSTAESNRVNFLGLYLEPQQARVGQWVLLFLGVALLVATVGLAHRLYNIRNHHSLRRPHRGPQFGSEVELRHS
Form entry: value (%) — number only.

Output inhibition of CC(=O)SCC(C(=O)N[C@@H](C)C(=O)OCc1ccccc1)C(C)c1ccc(F)c(F)c1 (some centres not stated)
22

Give inhibition for the following compound: CC(=O)Oc1ccc(C[C@H](NC(=O)C(CSC(C)=O)C(C)c2ccc(F)c(F)c2)C(=O)OCc2ccccc2)cc1 (some centres not stated)
19

Specify inhibition for COc1ccc(C(C)C(CSC(C)=O)C(=O)N[C@@H](Cc2ccc(OC(C)=O)cc2)C(=O)OCc2ccccc2)cc1 (some centres not stated) and stop.
33

Specify reported inhibition for the compound shown: CC(=O)Oc1ccc(C[C@H](NC(=O)C(CSC(C)=O)C(C)c2ccc(F)cc2)C(=O)OCc2ccccc2)cc1 (some centres not stated)
11

For CC(=O)SCC(C(=O)N[C@@H](Cc1ccc(O)cc1)C(=O)OCc1ccccc1)C(C)c1ccccc1 (some centres not stated) , write its inhibition.
7

For CC(=O)Oc1ccc(C[C@H](NC(=O)C(CSC(C)=O)C(C)c2ccccc2)C(=O)OCc2ccccc2)cc1 (some centres not stated) , write its inhibition.
28

Please report inhibition for the following compound: CCCC[C@H](NC(=O)C(CSC(C)=O)C(C)c1ccccc1)C(=O)OCc1ccccc1 (some centres not stated)
41

====

biological target: Angiotensin-converting enzyme (Mus musculus) (UniProt P09470); experiment: Inhibition of lung Angiotensin Converting Enzyme (ACE) in mouse at a dose of 2.6*10e-5 mol/kg after 20 min oral administration
Quantity Measured: inhibition (%)
Dear colleague, please return just the value in %, with no unit written.

Could you please provide reported inhibition for COc1ccc(C(C)C(CSC(C)=O)C(=O)N[C@@H](Cc2ccc(OC(C)=O)cc2)C(=O)OCc2ccccc2)cc1 (some centres undefined) ? Thanks!
14

Look up and state reported inhibition for CC(=O)Oc1ccc(C[C@H](NC(=O)C(CSC(C)=O)C(C)c2ccccc2)C(=O)OCc2ccccc2)cc1 (some centres undefined)
25

Output inhibition of CC(=O)SCC(C(=O)N[C@@H](Cc1ccc(O)cc1)C(=O)OCc1ccccc1)C(C)c1ccccc1 (some centres undefined)
20

Specify inhibition for CC(=O)Oc1ccc(C[C@H](NC(=O)C(CSC(C)=O)C(C)c2ccc(F)cc2)C(=O)OCc2ccccc2)cc1 (some centres undefined) and stop.
36

Answer with the recorded inhibition of CC(=O)SCC(C(=O)NCC(=O)OCc1ccccc1)C(C)c1ccccc1 (centres undefined) only.
36

Input CC(=O)SCC(C(=O)N[C@@H](C)C(=O)OCc1ccccc1)C(C)c1ccccc1 (some centres undefined) , output reported inhibition.
54

Input CCCC[C@H](NC(=O)C(CSC(C)=O)C(C)c1ccccc1)C(=O)OCc1ccccc1 (some centres undefined) , output reported inhibition.
34

Specify inhibition for CC(=O)Oc1ccc(C[C@H](NC(=O)C(CSC(C)=O)C(C)c2ccc(F)c(F)c2)C(=O)OCc2ccccc2)cc1 (some centres undefined) and stop.
24

Specify measured inhibition for CC(=O)SCC(C(=O)N[C@@H](C)C(=O)OCc1ccccc1)C(C)c1ccc(F)c(F)c1 (some centres undefined) .
35

====

Recorded Ki values (Angiotensin-converting enzyme (Mus musculus, UniProt P09470)) are given below.
Field: numeric (nM). Do not append units.

Please supply the value of reported Ki for the item C[C@H](NC(=O)[C@H](CS)[C@@H](C)c1ccccc1)C(=O)O (stereo in doubt; 44c)
4.5

Identify Ki associated with the compound "C[C@H](c1ccccc1)[C@@H](CS)C(=O)N[C@@H](Cc1ccccc1)C(=O)O"
10

Entry C[C@H](NC(=O)[C@H](CS)[C@@H](C)c1ccccc1)C(=O)O (stereo in doubt; 44d) needs its Ki filled in; supply it.
95

Read off the recorded Ki for C[C@H](NC(=O)[C@H](CS)[C@@H](C)c1ccccc1)C(=O)O (stereo in doubt; 44b)
16

====

biological target: Neprilysin (Mus musculus) (UniProt Q61391); assay: Inhibition of Neutral Endopeptidase activity was measured by using the displacement of [3H]HACBOGly from mouse kidney after 2 hr oral administration; set-up: scale not given: the % may be the effect or the level left
Sequence (Q61391 whole entry): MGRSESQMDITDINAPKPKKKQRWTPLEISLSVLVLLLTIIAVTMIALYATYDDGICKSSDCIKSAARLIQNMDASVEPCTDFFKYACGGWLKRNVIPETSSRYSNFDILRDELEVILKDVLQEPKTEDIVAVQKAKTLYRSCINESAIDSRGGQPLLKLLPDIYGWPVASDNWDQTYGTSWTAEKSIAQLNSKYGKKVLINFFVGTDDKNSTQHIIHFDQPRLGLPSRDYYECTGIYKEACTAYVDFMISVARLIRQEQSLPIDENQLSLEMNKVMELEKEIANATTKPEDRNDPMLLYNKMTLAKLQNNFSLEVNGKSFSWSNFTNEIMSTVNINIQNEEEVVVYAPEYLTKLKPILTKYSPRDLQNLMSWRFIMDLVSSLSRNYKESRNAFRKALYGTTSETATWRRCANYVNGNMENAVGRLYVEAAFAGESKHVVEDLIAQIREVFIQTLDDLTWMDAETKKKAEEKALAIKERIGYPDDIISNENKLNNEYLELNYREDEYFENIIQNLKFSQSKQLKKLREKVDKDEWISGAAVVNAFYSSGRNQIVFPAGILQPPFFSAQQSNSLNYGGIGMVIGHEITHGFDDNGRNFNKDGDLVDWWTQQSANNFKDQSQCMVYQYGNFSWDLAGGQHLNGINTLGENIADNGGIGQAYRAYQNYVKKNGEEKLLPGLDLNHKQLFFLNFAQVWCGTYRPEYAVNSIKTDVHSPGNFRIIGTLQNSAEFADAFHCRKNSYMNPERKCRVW
Task for the reader: assign each of the following compounds its reported Control.
Give the quantity in %, number only.

Quick one: give measured Control for CCC[C@H](NC(=O)C(CSC(=O)c1ccccc1)C(C)c1ccccc1)C(=O)O (some centres undefined)
55

Return value of Control for input CC[C@H](NC(=O)C(CSC(=O)c1ccccc1)C(C)c1ccccc1)C(=O)O (some centres undefined) , no commentary.
97

Give a short answer stating reported Control for CC(c1ccccc1)C(CSC(=O)c1ccccc1)C(=O)N[C@@H](C)C(=O)O (some centres undefined) .
100

Tell me Control reported for "C[C@H](NC(=O)[C@@H](CSC(=O)C12CC3CC(CC(C3)C1)C2)[C@@H](C)c1ccccc1)C(=O)O"
100

====

target: Angiotensin-converting enzyme (Mus musculus) (UniProt P09470); assay: In vivo inhibition of lung ACE was observed at 240 min after oral administration of the compound; type: functional, organism-based; parameters: concentration or dose not given beside the values
Quantity Measured: Control (%)
Write it as a number; the unit % goes unstated.

For the molecule "C[C@H](NC(=O)[C@@H](CSC(=O)C12CC3CC(CC(C3)C1)C2)[C@@H](C)c1ccccc1)C(=O)O" , give its reported Control.
37

For CC[C@H](NC(=O)C(CSC(=O)c1ccccc1)C(C)c1ccccc1)C(=O)O (stereo not given in full) , write its Control.
30

Return Control (reported value) for this molecule: CC(=O)SCC(C(=O)N[C@@H](C)C(=O)O)C(C)c1ccccc1 (stereo not given in full)
16

Give recorded Control. CC(c1ccccc1)C(CSC(=O)C12CC3CC(CC(C3)C1)C2)C(=O)N[C@@H](C)C(=O)O (stereo not given in full)
35

Write down Control measured for item CC(=O)SCC(C(=O)N[C@@H](C)C(=O)OCc1ccccc1)C(C)c1ccccc1 (stereo not given in full)
2
